Target: His-hMAGL (recombinant polyhistidine tagged human MAGL protein) (Homo sapiens, UniProt Q99685)
Construct: made in house; host or cells: E. coli BL21(DE3)
Assay: Measurement of MAGL inhibitory activity (arachidonic acid production from 2-arachidonylglycerol, RapidFire-mass spectrometry)
Format: biochemical
Settings: MAGL inhibitory rate at 10 μM test compound; 60 min preincubation with His-hMAGL, 2-arachidonylglycerol substrate, 10 min reaction at room temperature
List of inhibition at 10 µM values.
Measurement label: inhibition at 10 µM (%)

1. O=C1COc2cc(F)c(C(=O)N3CC(COc4ccc(Cl)cc4-c4cnn(C(F)F)c4)C3)cc2N1
104
2. CC(C)(O)c1cc(F)ccc1OCC1CCN(C(=O)c2cc3c(cc2F)OCC(=O)N3)CC1
99
3. O=C1COc2ccc(C(=O)N3CCC(COc4cccc(OC(F)(F)F)c4)CC3)cc2N1
98
4. Cc1ncccc1-c1ccc(OCC2CN(C(=O)c3cc4c(cc3F)OCC(=O)N4)C2)c(F)c1
98
5. O=C1COc2cc(F)c(C(=O)N3CC(OCc4cccc(Cl)c4)C3)cc2N1
101
6. CC(Oc1ccc(F)cc1Cl)C1CCN(C(=O)c2cc3c(cc2F)OCC(=O)N3)CC1 (stereo not drawn)
102
7. Cc1ccc(OCC2CCN(C(=O)c3ccc4c(c3)NC(=O)CO4)CC2)c(C)c1
98
8. O=C1COc2c(F)cc(C(=O)N3CCC(COc4ccc(F)cc4Cl)CC3)cc2N1
99
9. Cc1nn(C)cc1-c1ccc(OCC2CN(C(=O)c3cc4c(cc3F)OCC(=O)N4)C2)c(F)c1
101
10. O=C1COc2cc(F)c(C(=O)N3CC(COc4ccc(Cl)cc4Br)C3)cc2N1
100
11. Cc1ccc(OCC2CN(C(=O)c3cc4c(cc3F)OCC(=O)N4)C2)c(C)c1
103
12. O=C1COc2cc(F)c(C(=O)N3CC(COc4ccccc4Cl)C3)cc2N1
101
13. Cc1ccc(OCC2CN(C(=O)c3cc4c(cc3F)OCC(=O)N4)C2)cc1Cl
99
14. O=C1COc2ncc(C(=O)N3CC(COCc4ccccc4)C3)cc2N1
80
15. Cc1cccc(-c2ccc(OCC3CN(C(=O)c4cc5c(cc4F)OCC(=O)N5)C3)c(F)c2)n1
95
16. CC(Oc1cccc(F)c1F)C1CN(C(=O)c2cc3c(cc2F)OCC(=O)N3)C1 (stereo not drawn)
102
17. O=C1COc2cc(F)c(C(=O)N3CC(COc4ccc(N5CC(F)C5)cc4Cl)C3)cc2N1
100
18. O=C1COc2cc(F)c(C(=O)N3CCC(COc4cccn5nccc45)CC3)cc2N1
102
19. O=C1COc2cc(F)c(C(=O)N3CC(COc4ccc(F)cc4Cl)C3)c(F)c2N1
100
20. Cn1nccc1-c1cc(Cl)ccc1OCC1CN(C(=O)c2cc3c(cc2F)OCC(=O)N3)C1
99
21. O=C1COc2cc(F)c(C(=O)N3CC(COc4ccc(Cl)cc4-c4cnn(C5CC5)c4)C3)cc2N1
99
22. CC(Oc1ccc2cn[nH]c2c1)C1CN(C(=O)c2cc3c(cc2F)OCC(=O)N3)C1 (stereo not drawn)
100
23. O=C1COc2ncc(C(=O)N3CCC(COc4cc(Cl)ccc4Cl)CC3)cc2N1
100
24. Cc1cccc(-c2cc(Cl)ccc2OCC2CN(C(=O)c3cc4c(cc3F)OCC(=O)N4)C2)n1
104
25. COc1cc(Cl)ccc1OCC1CN(C(=O)c2cc3c(cc2F)OCC(=O)N3)C1
103
26. O=C1COc2cc(F)c(C(=O)N3CC(COc4ccc(Cl)cc4-c4ccncc4)C3)cc2N1
104
27. O=C1COc2cc(F)c(C(=O)N3CC(COCC4CC4)C3)cc2N1
85
28. O=C1COc2ncc(C(=O)N3CCC(COc4cccc(Cl)c4Cl)CC3)cc2N1
100
29. O=C1COc2cc(F)c(C(=O)N3CC(OCc4ccccc4Cl)C3)cc2N1
102
30. O=C1COc2cc(F)c(C(=O)N3CC(COc4cccc5ocnc45)C3)cc2N1
101
31. O=C1COc2cc(F)c(C(=O)N3CC(OCc4cccc(OC(F)F)c4)C3)cc2N1
100
32. O=C1COc2cc(F)c(C(=O)N3CC(COc4ccc(F)c(C(F)(F)F)c4)C3)cc2N1
103
33. N#Cc1cc(Cl)ccc1OCC1CCN(C(=O)c2ccc3c(c2)NC(=O)CO3)CC1
99

----------
Each record here notes measured inhibition at 10 µM.
Target: His-hMAGL (recombinant polyhistidine tagged human MAGL protein) (Homo sapiens)
Construct: made in house; host or cells: E. coli BL21(DE3)
Assay: Measurement of MAGL inhibitory activity (arachidonic acid production from 2-arachidonylglycerol, RapidFire-mass spectrometry)
Format: biochemical
Settings: MAGL inhibitory rate at 10 μM test compound; 60 min preincubation with His-hMAGL, 2-arachidonylglycerol substrate, 10 min reaction at room temperature
Procedure: Furthermore, acetonitrile (50 μL) containing 3 μM arachidonic acid-d8 (Cayman Chemical Company) was added and the mixture was stirred. The amount of arachidonic acid in the obtained enzyme reaction mixture was calculated by measuring by RapidFire-mass spectrometry and correcting by the amount of arachidonic acid-d8. […] MAGL inhibitory rate (%) was calculated according to the following calculation formula. […]
Measurement label: inhibition at 10 µM (%)

1. CCc1ncccc1-c1ccc(OCC2CN(C(=O)c3cc4c(cc3F)OCC(=O)N4)C2)c(F)c1
100
2. Cc1cccnc1-c1ccc(OCC2CN(C(=O)c3cc4c(cc3F)OCC(=O)N4)C2)c(F)c1
100
3. O=C1COc2cc(F)c(C(=O)N3CC(COc4cc(Cl)ccc4Cl)C3)cc2N1
98
4. Cc1nc(F)ccc1-c1ccc(OCC2CN(C(=O)c3cc4c(cc3F)OCC(=O)N4)C2)c(F)c1
100
5. Cc1c(-c2ccc(OCC3CN(C(=O)c4cc5c(cc4F)OCC(=O)N5)C3)c(F)c2)cnn1C
101
6. O=C1COc2ncc(C(=O)N3CCC(COc4ccc(Cl)cc4)CC3)cc2N1
98
7. O=C1COc2cc(F)c(C(=O)N3CCC(COc4cccc5scnc45)CC3)cc2N1
97
8. O=C1COc2cc(F)c(C(=O)N3CC(COc4ccc(Cl)cc4-c4cncc(F)c4)C3)cc2N1
102
9. O=C1COc2cc(F)c(C(=O)N3CC(OCc4ccc5c(c4)CCCC5)C3)cc2N1
101
10. N#Cc1ccc(OCC2CN(C(=O)c3cc4c(cc3F)OCC(=O)N4)C2)cc1Cl
100
11. O=C1COc2ccc(C(=O)N3CCC(COc4ccc(C(F)(F)F)cc4)CC3)cc2N1
100
12. O=C1COc2ccc(C(=O)N3CCC(COc4cccc(F)c4Cl)CC3)cc2N1
101
13. O=C1COc2cc(F)c(C(=O)N3CC(COc4ccc(Cl)cc4-c4ccncc4F)C3)cc2N1
101
14. O=C1COc2cc(F)c(C(=O)N3CC(COC4CCC(F)(F)CC4)C3)cc2N1
99
15. O=C1COc2cc(F)c(C(=O)N3CCC(COc4ccc(F)cc4-c4ccccc4)CC3)cc2N1
98
16. Cc1cc(C)c(OCC2CN(C(=O)c3cc4c(cc3F)OCC(=O)N4)C2)cn1
102
17. Cn1cc(-c2cc(Cl)ccc2OCC2CN(C(=O)c3cc4c(cc3F)OCC(=O)N4)C2)cn1
100

----------
Biological target: His-hMAGL (recombinant polyhistidine tagged human MAGL protein) (Homo sapiens)
Construct: made in house; host or cells: E. coli BL21(DE3)
Sequence (Q99685 1-303): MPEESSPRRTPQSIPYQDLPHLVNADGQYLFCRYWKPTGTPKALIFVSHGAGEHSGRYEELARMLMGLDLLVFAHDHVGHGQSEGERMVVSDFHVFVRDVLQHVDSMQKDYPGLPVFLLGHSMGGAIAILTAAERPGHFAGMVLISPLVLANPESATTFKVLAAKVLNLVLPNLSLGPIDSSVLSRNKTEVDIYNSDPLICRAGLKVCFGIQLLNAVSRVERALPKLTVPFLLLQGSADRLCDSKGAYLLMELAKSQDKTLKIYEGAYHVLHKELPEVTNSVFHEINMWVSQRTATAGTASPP
Experiment: Measurement of MAGL inhibitory activity (arachidonic acid production from 2-arachidonylglycerol, RapidFire-mass spectrometry)
Assay type: biochemical
Details: MAGL inhibitory rate at 10 μM test compound; 60 min preincubation with His-hMAGL, 2-arachidonylglycerol substrate, 10 min reaction at room temperature
Let's look at some compounds and their measured inhibition at 10 µM.
Measurement label: inhibition at 10 µM (%)

1. COc1cc2c(cc1C(=O)N1CCC(COc3ccc(F)cc3Cl)CC1)NC(=O)CO2
100
2. O=C1COc2cc(F)c(C(=O)N3CC(COc4ccc5cccnc5c4)C3)cc2N1
98
3. O=C1COc2ccc(C(=O)N3CCC(COc4cccc5[nH]ncc45)CC3)cc2N1
101
4. O=C(c1ccc2oc(=O)[nH]c2c1)N1CCC(COc2ccccc2Cl)CC1
96
5. O=C1COc2cc(F)c(C(=O)N3CC(COc4ccc(Cl)cc4C4=CCOCC4)C3)cc2N1
101
6. Cc1cc(-c2ccc(OCC3CN(C(=O)c4cc5c(cc4F)OCC(=O)N5)C3)c(F)c2)nn1C
102
7. O=C1COc2cc(F)c(C(=O)N3CC(OCc4ccc(-n5cccn5)cc4)C3)cc2N1
101
8. O=C1COc2ccc(C(=O)N3CCC(COc4ccccc4OC(F)(F)F)CC3)cc2N1
96
